Reference source for all entries: BindingDB's records for doi:10.7270/Q2JQ0ZGP

- ASSAYED_SYSTEM: 60S ribosomal protein L19-A (Saccharomyces cerevisiae (strain ATCC 204508 / S288c))
- Sequence (P0CX82 whole entry, the tested form may be a part): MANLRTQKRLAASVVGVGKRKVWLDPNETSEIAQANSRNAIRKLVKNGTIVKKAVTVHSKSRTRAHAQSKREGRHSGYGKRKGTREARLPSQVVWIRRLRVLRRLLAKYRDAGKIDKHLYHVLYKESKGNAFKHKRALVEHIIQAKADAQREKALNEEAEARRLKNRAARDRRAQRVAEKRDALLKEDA
- EXPERIMENT_SUMMARY: Dose response follow up of MLPCN hits, RPL19A GFP fusion, TOR pathway (AID 2740)
pEC50: −log10 of the molar value.
Below, each of the molecules is paired with its reported pEC50 value.
READOUT_TYPE: pEC50

{"columns": ["SMILES_INPUT", "READOUT_TYPE", "READING"],
 "data": [
  ["O=C1NC(=S)NC(=O)C1=Cc1ccc2c(c1)CCN2CCCCl", "pEC50", "< 4.48"],
  ["CS(=O)(=O)c1nc(-c2cccs2)cc(C(F)(F)F)n1", "pEC50", "< 4.48"]
]}
